Test: Confirmation Concentration-Response Assay for lipid storage modulators; also: nearly all actives have a fitted effect of over 80% in size
Conditions: Drosophila S3 cells, lipid droplet BODIPY/CellTracker ratio, 18-24 h; series mostly up to 46.1 µM
Records with an inconclusive call do not appear. Active and inactive are the calls of the source. Calls follow the shape of the dose curve; as a rule, active = well fitted inhibition curve with a large enough effect; inconclusive = small, poorly fitted or top-dose-only effect, or effect the other way, or another doubt; inactive = no such curve, though single readings can be large or run the other way.
Outcomes: Yes = active, No = inactive

{"Compound": "Cc1ccc(S(=O)(=O)N(C)C)cc1NC(=O)COC(=O)c1sc2cc(Cl)ccc2c1Cl", "Qualitative label": "Yes"}
{"Compound": "COc1ccc(CC(=O)NCCc2ccc(OC)c(OC)c2)cc1", "Qualitative label": "No"}
{"Compound": "Cc1cnc(NC(=O)CSc2ncc(-c3ccccc3)n2Cc2ccco2)s1", "Qualitative label": "No"}
{"Compound": "CCOC(=O)C1CCN(C(=O)C2(NC(=O)Nc3ccccc3C)CCCCC2)CC1", "Qualitative label": "Yes"}
{"Compound": "CC(=O)Nc1cccc(C(=O)NC2CCCc3c2cnn3-c2ccccc2F)c1 (stereo unspecified)", "Qualitative label": "Yes"}
{"Compound": "COc1ccc(/C=C(\\NC(=O)c2cccs2)C(=O)Nc2ccc(C)cc2)cc1OC", "Qualitative label": "Yes"}
{"Compound": "c1ccc(-c2cnn3c(-c4ccccc4)c(-c4ccccc4)nc3n2)cc1", "Qualitative label": "Yes"}
{"Compound": "Cc1cc(C(=O)O[C@H]2[C@H](C)NS(=O)(=O)[C@H]3C[C@@H]4C=C[C@]23O4)cc([N+](=O)[O-])c1", "Qualitative label": "No"}
{"Compound": "S=C(Nc1cc(Cl)ccc1Oc1ccccc1)N1CCN(c2ccccn2)CC1", "Qualitative label": "Yes"}
{"Compound": "CCOc1ccc(CCNC(=O)CSCc2ccc(C)cc2)cc1OCC", "Qualitative label": "No"}
{"Compound": "CCOc1ccc(CCNC(=O)CN2CCN(Cc3ccccc3C)C2=O)cc1OCC", "Qualitative label": "No"}
{"Compound": "COc1ccc2c(c1)O[C@@H](c1cccc(C(F)(F)F)c1)[C@H](OC(=O)NCCc1ccc(OC)c(OC)c1)C2=O", "Qualitative label": "Yes"}
{"Compound": "COc1ccc(NC(=O)NC2(C(=O)N3CCCC(C)C3)CCCCC2)cc1 (stereo unspecified)", "Qualitative label": "No"}
{"Compound": "COc1ccc(CCNC(=O)CSc2nnc(CNc3ccc(Cl)cc3)o2)cc1OC", "Qualitative label": "No"}
{"Compound": "Cc1ccc(-n2ncc3c2CCCC3NC(=O)c2cnccn2)cc1C (stereo unspecified)", "Qualitative label": "Yes"}
{"Compound": "COc1ccccc1NC(=O)NC1(C(=O)N2CCC(C)CC2)CCCCC1", "Qualitative label": "No"}
{"Compound": "O=C1C(Nc2ccccc2)=C/C(=N/S(=O)(=O)c2cccs2)c2ccccc21", "Qualitative label": "Yes"}
{"Compound": "CCCCNc1cc(C)nc(NCc2ccccc2)n1", "Qualitative label": "Yes"}
{"Compound": "COc1ccc(CCNC(=O)COc2ccc(S(=O)(=O)NCC(C)C)cc2Cl)cc1OC", "Qualitative label": "No"}
{"Compound": "COCc1ccc(C(=O)NC(C)c2cnn(-c3ccccc3C)c2C)o1 (stereo unspecified)", "Qualitative label": "Yes"}
{"Compound": "CCCCCCCCCCCCCCCCn1cc[n+](C)c1", "Qualitative label": "Yes"}
